- Test system: barley, spring (spring barley, Hordeum vulgare)
- assayName: Test D pre-/postemergence controlled growth environment herbicide test
- Type: in vivo
- settings: Preemergence, 31 g ai/ha, scale 0 to 100
Some compounds, each annotated with its measured Plant response rating.
Respond with the number and no other words.

Query block: API: value(readout= Plant response rating, system= barley, spring (spring barley, Hordeum vulgare), query= Cc1cc(=O)n(-c2ccc(C(F)(F)F)cc2)nc1Cc1ccnc(C(F)(F)F)c1 )
Result block: 0

Query block: Provide value of Plant response rating for this record tested with barley, spring (spring barley, Hordeum vulgare): Cc1cc(=O)n(-c2ccc(F)cc2)nc1Cc1ccnc(C(F)(F)F)c1
Result block: 0

Query block: Report Plant response rating for COc1cc(=O)n(-c2ccc(F)cc2)nc1Cc1ccnc(C(F)(F)F)c1 tested on barley, spring (spring barley, Hordeum vulgare).
Result block: 15

***
Query block: // map Cc1cc(=O)n(-c2ccc(F)cc2)nc1Oc1ccnc(C(F)(F)F)c1 to recorded Plant response rating (system: barley, spring (spring barley, Hordeum vulgare))
Result block: 10

====

Here the recorded Plant response rating is given for each entry.
- System: chamomile (scentless chamomile, Matricaria inodora)
- assayName: Test D pre-/postemergence controlled growth environment herbicide test
- Assay type: in vivo
- settings: Postemergence, 250 g ai/ha, scale 0 to 100
Give the figure only, with no unit attached.

Here's what some known entries look like.
Query block: Quick check: Plant response rating of Cc1cc(=O)n(-c2ccc(F)cc2)nc1Oc1ccnc(C(F)(F)F)c1 ?
Result block: 25

Query block: Report Plant response rating for COc1cc(=O)n(-c2ccc(F)cc2)nc1Cc1ccnc(C(F)(F)F)c1 please.
Result block: 60

Query block: # Plant response rating lookup, item Cc1cc(=O)n(-c2ccc(F)cc2)nc1Cc1ccnc(C(F)(F)F)c1
Result block: 60

Others:
Query block: Which Plant response rating is listed for Cc1cc(=O)n(-c2ccc(C(F)(F)F)cc2)nc1Cc1ccnc(C(F)(F)F)c1 ?
Result block: 40

====

- System: barley, spring (spring barley, Hordeum vulgare)
- assayName: Test D pre-/postemergence controlled growth environment herbicide test
- Assay type: in vivo
- settings: Preemergence, 62 g ai/ha, scale 0 to 100
- Source text: […]
Property: Plant response rating; scope: individual molecules
// keep it numeric: no unit symbol after the value

Query block: Please state recorded Plant response rating (tested on barley, spring (spring barley, Hordeum vulgare)) of Cc1cc(=O)n(-c2ccc(F)cc2)nc1Oc1ccnc(C(F)(F)F)c1
Result block: 5

Query block: Short answer please: Plant response rating, barley, spring (spring barley, Hordeum vulgare), entry Cc1cc(=O)n(-c2ccc(F)cc2)nc1Cc1ccnc(C(F)(F)F)c1
Result block: 5

Query block: Record lookup: for barley, spring (spring barley, Hordeum vulgare), what Plant response rating belongs to Cc1cc(=O)n(-c2ccc(C(F)(F)F)cc2)nc1Cc1ccnc(C(F)(F)F)c1 ?
Result block: 0

Others:
Query block: Enter reported Plant response rating observed with barley, spring (spring barley, Hordeum vulgare) for COc1cc(=O)n(-c2ccc(F)cc2)nc1Cc1ccnc(C(F)(F)F)c1
Result block: 20

====

- System: foxtail, giant (giant foxtail, Setaria faberii)
- assayName: Test C pre-/postemergence greenhouse herbicide test
- Type: in vivo
- settings: Setaria faberi, post-emergence; Foxtail, Giant; Postemergence; 125 g ai/ha; read-out: Plant response rating
propertyLabel: pest or weed control at 125 g/ha (%)
Lab book: enter the figure in %, no units written.

Would you please look over these solved cases?
Query block: Requested field: pest or weed control at 125 g/ha. Item: Cc1cc(=O)n(-c2ccc(F)cc2)nc1Cc1ccnc(C(F)(F)F)c1
Result block: 15

Query block: Give its pest or weed control at 125 g/ha value. Item: Cc1cc(=O)n(-c2ccc(F)cc2)nc1Oc1ccnc(C(F)(F)F)c1
Result block: 10

Query block: Look at this compound and give its reported pest or weed control at 125 g/ha. COc1cc(=O)n(-c2ccc(C(F)(F)F)cc2)nc1Cc1ccnc(C(F)(F)F)c1
Result block: 30

Query block: I have this compound here, COc1cc(=O)n(-c2ccc(F)cc2)nc1Cc1ccnc(C(F)(F)F)c1 , and I need its recorded pest or weed control at 125 g/ha.
Result block: 20

Query block: // lookup pest or weed control at 125 g/ha for Cc1cc(Oc2ccnc(C(F)(F)F)c2)nn(-c2ccc(C(F)(F)F)cc2)c1=O
Result block: 65

// moving on: another record for pest or weed control at 125 g/ha
Query block: # query: pest or weed control at 125 g/ha of entry Cc1cc(=O)n(-c2ccc(C(F)(F)F)cc2)nc1Cc1ccnc(C(F)(F)F)c1
Result block: 25

====

- System: wheat (winter wheat, Triticum aestivum)
- assayName: Test C pre-/postemergence greenhouse herbicide test
- Type: in vivo
- settings: Triticum aestivum, post-emergence; Wheat; Postemergence; 31 g ai/ha; read-out: Plant response rating
Catalogue of plant injury at 31 g/ha readings, one per entry.
Numbers only; they are read as %.

Use the examples below as a reference point.
Query block: Need plant injury at 31 g/ha, item Cc1cc(Oc2ccnc(C(F)(F)F)c2)nn(-c2ccc(C(F)(F)F)cc2)c1=O
Result block: 10

Query block: Any idea what plant injury at 31 g/ha was measured for Cc1cc(=O)n(-c2ccc(F)cc2)nc1Oc1ccnc(C(F)(F)F)c1 ?
Result block: 5

Query block: Field request: plant injury at 31 g/ha | item: Cc1cc(=O)n(-c2ccc(F)cc2)nc1Cc1ccnc(C(F)(F)F)c1
Result block: 0

Query block: Fill in: plant injury at 31 g/ha of COc1cc(=O)n(-c2ccc(F)cc2)nc1Cc1ccnc(C(F)(F)F)c1 is ___
Result block: 5

Query block: Look up plant injury at 31 g/ha: Cc1cc(=O)n(-c2ccc(C(F)(F)F)cc2)nc1Cc1ccnc(C(F)(F)F)c1
Result block: 5

Shifting focus to the compound that follows.
Query block: # lookup: plant injury at 31 g/ha of COc1cc(=O)n(-c2ccc(C(F)(F)F)cc2)nc1Cc1ccnc(C(F)(F)F)c1
Result block: 5

====

- Test system: soybean (Glycine max)
- assayName: Test C pre-/postemergence greenhouse herbicide test
- Format: in vivo
- settings: Glycine max, pre-emergence; Soybean; Preemergence; 125 g ai/ha; read-out: Plant response rating
// reported plant injury at 125 g/ha for each item listed
Kindly format the answer as number then unit.

Illustrative cases are given below, each with its answer.
Query block: Would you mind telling me what plant injury at 125 g/ha value was observed for CCOc1cc(=O)n(-c2ccc(F)cc2)nc1Cc1ccnc(C(F)(F)F)c1 [Compound 25] ?
Result block: 35%

Query block: plant injury at 125 g/ha for COc1cc(=O)n(-c2ccc(F)cc2)nc1Cc1ccnc(C(F)(F)F)c1 [Compound 17] ?
Result block: 95%

More entries:
Query block: // query plant injury at 125 g/ha value for entry Cc1cc(=O)n(-c2ccc(F)cc2)nc1Cc1ccnc(C(F)(F)F)c1 [Compound 1]
Result block: 95%

Query block: Sample COc1cc(=O)n(-c2ccc(C(F)(F)F)cc2)nc1Cc1ccnc(C(F)(F)F)c1 [Compound 16] — what was its plant injury at 125 g/ha?
Result block: 65%

Query block: Data request, read-out plant injury at 125 g/ha, for Cc1cc(=O)n(-c2ccc(C(F)(F)F)cc2)nc1Cc1ccnc(C(F)(F)F)c1 [Compound 2]
Result block: 55%

Query block: Item Cc1cc(=O)n(-c2ccc(F)cc2)nc1Oc1ccnc(C(F)(F)F)c1 [Compound 14] has what recorded plant injury at 125 g/ha?
Result block: 55%

====

- System: morningglory (Ipomoea coccinea)
- assayName: Test C pre-/postemergence greenhouse herbicide test
- Assay type: in vivo
- settings: Morningglory; Preemergence; 62 g ai/ha
Measured Plant response rating of individual entries
// keep it numeric: no unit symbol after the value

Query block: Short answer please: Plant response rating, morningglory (Ipomoea coccinea), entry Cc1cc(=O)n(-c2ccc(F)cc2)nc1Cc1ccnc(C(F)(F)F)c1 [Compound 1]
Result block: 90

Query block: What value of Plant response rating on morningglory (Ipomoea coccinea) does CCOc1cc(=O)n(-c2ccc(F)cc2)nc1C(O)c1ccnc(C(F)(F)F)c1 (stereo not shown) [Compound 23] have?
Result block: 98

Query block: Provide value of Plant response rating for this record tested with morningglory (Ipomoea coccinea): Cc1cc(=O)n(-c2ccc(C(F)(F)F)cc2)nc1Cc1ccnc(C(F)(F)F)c1 [Compound 2]
Result block: 65

Next:
Query block: Short answer please: Plant response rating, morningglory (Ipomoea coccinea), entry COc1cc(=O)n(-c2ccc(F)cc2)nc1Cc1ccnc(C(F)(F)F)c1 [Compound 17]
Result block: 85

Query block: Lab note: need Plant response rating with morningglory (Ipomoea coccinea) for entry Cc1cc(=O)n(-c2ccc(F)cc2)nc1Oc1ccnc(C(F)(F)F)c1 [Compound 14] , please look it up.
Result block: 60

Query block: Any idea what Plant response rating came out for CCOc1cc(=O)n(-c2ccc(F)cc2)nc1Cc1ccnc(C(F)(F)F)c1 [Compound 25] on morningglory (Ipomoea coccinea)?
Result block: 95

Query block: I'm curious: which Plant response rating was measured for COc1cc(=O)n(-c2ccc(C(F)(F)F)cc2)nc1Cc1ccnc(C(F)(F)F)c1 [Compound 16] tested on morningglory (Ipomoea coccinea)?
Result block: 95

The reported measurements were obtained from patent US10202361B2.
